Test system: RXF 393 renal
Assay: NCI tumour cell line growth inhibition, 48 h
REPORTED METRIC: TGI

Known TGI results, listed for orientation:
compound=Oc1c(N=Nc2ccccc2)c2ccccc2c2ccc3ccccc3c12 reported_metric=TGI recorded_result="> 100 µM"
compound="Cc1cc(C)c(NS(=O)c2cccc(Cl)c2)c(C)c1 (stereo not given)" reported_metric=TGI recorded_result="> 100 µM"
compound=CS(=O)(=O)Nc1cc(-c2ccc3ncnc(Nc4ccc5c(cnn5Cc5ccccc5F)c4)c3c2)cnc1Cl reported_metric=TGI recorded_result="5.85 µM"
compound=N#C[S-].[Au+].c1ccc(CN2[CH-]N(Cc3ccccc3)C(c3ccccc3)=C2c2ccccc2)cc1 reported_metric=TGI recorded_result="1.86 µM"

Turning now to a further compound:
Asked: # query: TGI of entry O=C(/C=C1/NC(=O)CS1)Nc1ccccc1
Given back: > 100 µM

* * *

Test system: NCI-H522 lung
Assay: NCI tumour cell line growth inhibition, 48 h
REPORTED METRIC: TGI

Known TGI results, listed for orientation:
compound="CC1=C(C(=O)Nc2ccc(F)c(Cl)c2)C(c2cccc(Oc3ccccc3)c2)NC(=O)N1 (stereo not given)" reported_metric=TGI recorded_result="29.4 µM"
compound="COc1ccc2c(c1)N=C1CSC(c3c(Cl)cccc3[N+](=O)[O-])N1C2 (stereo not given)" reported_metric=TGI recorded_result="> 100 µM"
compound="O=C1CCCC1NC(=O)C(F)(F)F (stereo not given)" reported_metric=TGI recorded_result="> 100 µM"

Asked: # query: TGI of entry O=C1/C(=C/c2ccc(Cl)cc2)COc2ccc(O)c(O)c21
Given back: 0.426 µM

Asked: # query: TGI of entry CCCCCCCCCC1CC(=O)NCC(=O)NC(C(C)C)C(=O)NC(CC(C)C)C(=O)NC(C)C(=O)NC(C(C)C)C(=O)O1 (stereo not given)
Given back: 35.2 µM

* * *

Test system: UACC-257 melanoma
Assay: NCI tumour cell line growth inhibition, 48 h
TGI listing for selected compounds.

Known TGI results, listed for orientation:
compound=Cc1ccc(C2=C(c3ccccc3)C(Br)(c3ccccc3)C(c3ccccc3)=C2c2ccc(C)cc2)cc1 recorded_result="> 100 µM"
compound=COc1cccc(C[C@H]2COC(=O)[C@]2(O)Cc2cccc(OC)c2)c1 recorded_result="> 100 µM"
compound=CC(C)(c1ccc(OC#N)cc1)c1ccc(OC#N)cc1 recorded_result="> 100 µM"
compound=O=C1C(=C(C(=O)c2ccccc2)C(=O)c2ccccc2)OC(c2ccccc2)=C1C(=O)c1ccccc1 recorded_result="55.1 µM"

Asked: # query: TGI of entry O=C1CCCC1NC(=O)C(F)(F)F (stereo not given)
Given back: > 100 µM

* * *

Tested on: DMS 273 small cell lung
Assay: NCI tumour cell line growth inhibition, 48 h
REPORTED METRIC: TGI

Known TGI results, listed for orientation:
compound=CCOC(=O)NC(=O)c1cn(CCN2CCN(C(=O)NCCCCCCNC(=O)N3CCN(CCn4cc(C(=O)NC(=O)OCC)c(=O)n(CCN(CC)CC)c4=O)CC3)CC2)c(=O)n(CCC(CC)CC)c1=O target_entity="DMS 273 small cell lung" reported_metric=TGI recorded_result="> 100 µM"
compound=N#CC(C#N)=C1SCC(=O)CS1 target_entity="DMS 273 small cell lung" reported_metric=TGI recorded_result="> 100 µM"
compound="O=C1CCCC1NC(=O)C(F)(F)F (stereo unspecified)" target_entity="DMS 273 small cell lung" reported_metric=TGI recorded_result="> 100 µM"
compound="CC(=O)c1cccc(NC(=O)C(=O)C(C(=O)c2ccccc2F)C2OC(=O)c3ccccc32)c1 (stereo unspecified)" target_entity="DMS 273 small cell lung" reported_metric=TGI recorded_result="> 100 µM"
compound=C[CH2][Sn]([Cl])([Cl])[CH2]C target_entity="DMS 273 small cell lung" reported_metric=TGI recorded_result="> 100 µM"
compound=Cc1cc2c(C(C)C)c(O)c(O)c(C=O)c2c(O)c1-c1c(C)cc2c(C(C)C)c(O)c(O)c(C=O)c2c1O target_entity="DMS 273 small cell lung" reported_metric=TGI recorded_result="18.3 µM"

Asked: # query: TGI of entry COC1=CC(=O)[C@]2(C)[C@H](C1=O)C(C)[C@H]2c1ccccc1 (stereo partly specified)
Given back: > 100 µM

Asked: # query: TGI of entry N#CN1CCC=C(c2cc3ccccc3[nH]2)C1
Given back: > 448 µM

Asked: # query: TGI of entry c1ccc2c3c([nH]c2c1)C1(CCCCC1)c1c([nH]c2ccccc12)C31CCCCC1
Given back: 59 µM

Asked: # query: TGI of entry N#CC(NNC(=O)c1ccccc1O)c1ccccc1 (stereo unspecified)
Given back: > 100 µM

Asked: # query: TGI of entry COc1ccc2c(c1)CC1c3c(cc4c(c3-2)OCO4)CCN1C (stereo unspecified)
Given back: > 100 µM

Values compiled from PubChem BioAssay (NCI).
